Sourced from patent US20140011799A1

Catalogue of pIC50 readings, one per entry.
Biological target: hepatic lipase (HL) (Homo sapiens, UniProt P11150)
Construct: made in house; host or cells: COS cells (conditioned medium, partially purified)
Sequence (P11150 23-499, species assumed): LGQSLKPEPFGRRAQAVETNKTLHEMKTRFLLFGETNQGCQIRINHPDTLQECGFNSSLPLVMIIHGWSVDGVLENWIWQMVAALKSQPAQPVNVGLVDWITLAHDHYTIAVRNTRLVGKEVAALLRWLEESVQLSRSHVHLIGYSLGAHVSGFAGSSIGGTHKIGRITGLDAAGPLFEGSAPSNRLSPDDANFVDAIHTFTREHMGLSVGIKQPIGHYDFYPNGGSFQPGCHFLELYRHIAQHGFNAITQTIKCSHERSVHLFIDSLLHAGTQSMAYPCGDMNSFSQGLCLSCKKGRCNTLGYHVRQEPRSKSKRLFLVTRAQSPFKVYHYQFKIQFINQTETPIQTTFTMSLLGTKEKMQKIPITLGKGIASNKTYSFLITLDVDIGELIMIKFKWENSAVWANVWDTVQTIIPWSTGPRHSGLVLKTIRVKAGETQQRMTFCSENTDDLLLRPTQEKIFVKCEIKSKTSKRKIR
Test: Hepatic lipase (HL) enzymatic assay, fluorescent substrate A10070 in DMPG vesicles
Type: biochemical
Details: HL partially purified from conditioned media of COS cells; compound preincubated 30 min at 37° C; read-out: HL IC50
The value called pIC50 is obtained by taking minus log10 of the concentration in mol/L.

Cc1noc(C)c1-c1ccc2sc(C(c3nnc(CNS(N)(=O)=O)o3)S(C)(=O)=O)nc2c1 (stereo not shown) [Example 248]    7.59

Inquiry: Tell me the measured pIC50 of COc1cc2nc(C(c3nnc(CNS(=O)(=O)NC(=O)OC(C)(C)C)o3)S(C)(=O)=O)sc2cc1-c1cnn(C)c1 (stereo not shown) [Example 159] , please.
Reply text: 7.85

Inquiry: Bench note: what pIC50 did CS(=O)(=O)C(c1nnc(CNS(N)(=O)=O)o1)c1nc2ccc(-c3cccc(C(=O)N4CCC(O)CC4)c3)cc2s1 (stereo not shown) [Example 255] show?
Reply text: 7.34

Inquiry: Which measured pIC50 value corresponds to COC1CN(C(=O)c2cccc(-c3ccc4nc(C(c5nnc(CC6(C)NC(=O)NC6=O)o5)S(C)(=O)=O)sc4c3)c2)C1 (stereo not shown) [Example 209] ?
Reply text: 6.64
